Please use the following melting point ranges when assigning a class: L (below 20 °C), M (20 °C to below 100 °C), H (100 °C or more)

Answered cases to consult:
O=C(NCO)c1ccccc1 :: M
FCC(F)(F)C(F)F :: L
O=c1nn[nH]c2ccccc12 :: H
CCOc1ccc(C(N)=O)cc1 :: H
Cc1ccc2cc(C)ccc2c1 :: H
CCOP(=S)(OCC)SCSC(C)(C)C :: L
CC12CCC(CC1=NO)C2(C)C (stereo not given) :: H

Pending compound:
Query block: Which melting point category applies to CCOC(=O)c1ccncc1 here?
Result block: M

###

Listed here are molecules together with their documented melting point.
Just the number in °C, nothing appended.

CCCNCCC :: -63
NCCCNC1CCCCC1 :: -18
OC1CCC(Cl)CC1 (centres undefined) :: 82.5
CCCSCC :: -117
NNc1cc(C(F)(F)F)cc(C(F)(F)F)c1 :: 82
Cc1cnc(N)c(Br)c1 :: 72
COc1cc2c(cc1OC)C(CCc1ccc(Cl)cc1)N(C)CC2 (centres undefined) :: 110
CC(=O)c1cc(Cl)ccc1Cl :: 12

Query block: Determine its reported melting point: COc1ccc(C#N)c2ccccc12
Result block: 102

###

Listed here are molecules together with their documented melting point.
Just the number in °C, nothing appended.

In the examples that follow, each entry is paired with its recorded melting point.
COc1cc(C=CC(=O)O)c([N+](=O)[O-])cc1OC :: 270
O=C1C2CC=CCC2C(=O)N1SC(Cl)(Cl)Cl (stereo unspecified) :: 178
O=c1c(O)c(-c2ccc(O)cc2)oc2cc(O)cc(O)c12 :: 277

Proceeding to the next molecule to report its melting point.
Query block: Determine its reported melting point: CCOc1ccc(NC(=O)CC(C)O)cc1 (stereo unspecified)
Result block: 160

###

Listed here are compounds together with their documented melting point.
Just the number in °C, nothing appended.

OCC(CO)(CCl)CCl :: 83
CC(C)CCCC(C)O (stereo not drawn) :: -105
Fc1ccc(I)cn1 :: 32
COC(=O)c1cc(O)cc(Br)c1 :: 133
CCN(CC)CC(=O)Nc1c(C)cc(C)cc1C :: 44
C=C(C)CCCCCCCCCC :: -31
CCCCC(C)CC (stereo not drawn) :: -100
COc1ccc(C2Nn3c(nnc3-c3cccc([N+](=O)[O-])c3)S2)cc1 (stereo not drawn) :: 206

Query block: Determine its reported melting point: COc1ccc(CC(=O)O)cc1
Result block: 87

###

assayMetric: melting point

Query block: Determine its reported melting point: CN1CCC23c4c5ccc(O)c4OC2C(=O)CCC3C1C5 (stereo unspecified)
Result block: 266 °C

Query block: Determine its reported melting point: Nc1ccc(S(=O)(=O)N2CCOCC2)cc1
Result block: 216 to 218 °C

Query block: Determine its reported melting point: Cc1cc2c(N)cccc2nn1
Result block: 189 to 191 °C

Query block: Determine its reported melting point: CSC(S)=Nc1ccc(N)cc1
Result block: 188 to 190 °C

Query block: Determine its reported melting point: Nc1ccc(N=Nc2ccc([N+]([O-])=Nc3ccc(N)cc3)cc2)cc1
Result block: 247 °C

Query block: Determine its reported melting point: OC1C=C2CCN3Cc4cc5c(cc4C(C1O)C23)OCO5 (stereo unspecified)
Result block: 280 °C

###

Listed here are compounds together with their documented melting point.
Just the number in °C, nothing appended.

CCCCOCCOCCOCCCC :: -60
Cc1nc(C2CCN(C(=O)OC(C)(C)C)CC2)sc1C=O :: 220
CC12CCC(=O)C=C1CCC1C2CCC2(C)C(OC(=O)CCC3CCCC3)CCC12 (stereo unspecified) :: 155
N[C@H]1CC[C@@H](C(=O)O)CC1 :: 300
COc1cc(C)nc(-n2nc(C)cc2OC)n1 :: 91

Query block: Determine its reported melting point: OC1CCc2ccccc2C1 (stereo unspecified)
Result block: 15.5

Query block: Determine its reported melting point: N=c1sc(C(=O)c2cccs2)nn1-c1c(Cl)cc(Cl)cc1Cl
Result block: 209

Query block: Determine its reported melting point: CC(=O)Oc1ccc(N)cc1
Result block: 74

Query block: Determine its reported melting point: O=[N+]([O-])c1ccc(/C=C/c2ccccc2O)c([N+](=O)[O-])c1
Result block: 186

Query block: Determine its reported melting point: CCCCCCCCCCS(=O)(=O)Cl
Result block: 34

Query block: Determine its reported melting point: CC1=C(Cl)CCP(=O)(c2ccccc2)C1 (stereo unspecified)
Result block: 143

Query block: Determine its reported melting point: CC(=O)NC1C(O)OC(CO)C(O)C1OC(C)C(=O)O (stereo unspecified)
Result block: 125

Query block: Determine its reported melting point: Cc1cc(Br)ncc1Br
Result block: 38

Query block: Determine its reported melting point: Cl/C(=C\c1ccccc1)c1ccc2c3c(cccc13)CC2
Result block: 77

Query block: Determine its reported melting point: FC1CCCCC1
Result block: 13

###

Listed here are molecules together with their documented melting point.
Just the number in °C, nothing appended.

In the examples that follow, each entry is paired with its recorded melting point.
CCN(CC)C(=O)SCc1ccccc1Cl :: 9
Cc1cc2c(s1)=Nc1ccccc1NC=2N1CCN(C)CC1 :: 195
Cc1c(Br)c(Br)c(Br)c(Br)c1Br :: 288
CC(=O)OCC(=O)C1CCC2C3CC=C4CC(O)CCC4(C)C3CCC12C (configuration not stated) :: 184
COc1ccc(-c2csc(/C(C#N)=N\Nc3ccc(O)cc3)n2)cc1 :: 235

Query block: Determine its reported melting point: CCC(C)(O)CNC1C2CCC(C)(C1O)C2(C)C (configuration not stated)
Result block: 119

Query block: Determine its reported melting point: O=C(O)C=CC(=O)Nc1ccc(F)cc1F
Result block: 191

Query block: Determine its reported melting point: O=c1nc2ccccc2nc(C(F)(F)F)c1NNc1ccc2ccccc2c1
Result block: 151

Query block: Determine its reported melting point: Clc1ccc(CSC(Cn2cncn2)=Nc2ccc(Cl)cc2Cl)cc1
Result block: 90

Query block: Determine its reported melting point: CCOC(=O)C(C#N)c1cc(Cl)c([N+](=O)[O-])cc1[N+](=O)[O-] (configuration not stated)
Result block: 109

Query block: Determine its reported melting point: ClC#CCl
Result block: -66

Query block: Determine its reported melting point: CCOC(=O)C(OC(=O)c1ccccc1)c1cc(C(OC(=O)c2ccccc2)C(=O)OCC)c([N+](=O)[O-])cc1[N+](=O)[O-] (configuration not stated)
Result block: 133

Query block: Determine its reported melting point: CC(C)OC(=O)Nc1cccc(Cl)c1
Result block: 42

Query block: Determine its reported melting point: CC(=O)Oc1ccc(C(c2ccc(OC(C)=O)cc2)c2ccccn2)cc1
Result block: 134

Query block: Determine its reported melting point: N#CC(CCN1CCC(C(N)=O)(N2CCCCC2)CC1)(c1ccccc1)c1ccccc1
Result block: 150

Query block: Determine its reported melting point: COC(=O)Oc1ccccc1C(=O)O
Result block: 134

Query block: Determine its reported melting point: Cc1cc(=O)oc2cc(N)ccc12
Result block: 227

Query block: Determine its reported melting point: NCc1ccccn1
Result block: -20

Query block: Determine its reported melting point: O=C(O)CC(O)(C(F)(F)F)C(F)(F)F
Result block: 87

Query block: Determine its reported melting point: COC(=O)c1ccc(C)c(OC)c1
Result block: 49

Query block: Determine its reported melting point: NS(=O)(=O)c1cccc(/C(=N\O)c2ccccc2)c1
Result block: 155

Query block: Determine its reported melting point: OCCc1cccc2ccccc12
Result block: 62

Query block: Determine its reported melting point: C=C1C(=O)C23C(OC(C)=O)CC4C(C)(C)CCC(OC(C)=O)C4(C)C2C(OC(C)=O)CC1(O)C3OC(C)=O (configuration not stated)
Result block: 278

Query block: Determine its reported melting point: CCCOC(=O)C1=C(C)NC(=O)NC1c1cccc(OC)c1OC (configuration not stated)
Result block: 163

Query block: Determine its reported melting point: O=c1oc2c(O)c(O)cc3c(=O)oc4c(O)c(O)cc1c4c23
Result block: 450

###

assayMetric: melting point (°C)
Just the number in °C, nothing appended.

In the examples that follow, each entry is paired with its recorded melting point.
CNC(=O)Oc1cc(C)cc(C(C)C)c1 :: 87
O=C(O)CCCCCCCCCCCO :: 86.5
CC(CCC(=O)O)C1CCC2C3C(O)CC4CC(O)CCC4(C)C3CCC12C (configuration not stated) :: 203
C#CC(C)O (configuration not stated) :: -3
COC1=CC(c2ccccc2)c2ccccc21 (configuration not stated) :: 68
c1ccc(SCc2ccc(CN3CCOCC3)cc2)cc1 :: 219
NS(=O)(=O)c1cc(F)c(Br)cc1F :: 165
CN1c2ccccc2Sc2ccccc21 :: 102

Query block: Determine its reported melting point: Cc1cc(C)c2c(=O)[nH]n(C)c2n1
Result block: 216

Query block: Determine its reported melting point: Cc1nn(-c2ccccc2)nc1C(=O)O
Result block: 203

Query block: Determine its reported melting point: CCOC(=O)Cc1ccc([N+](=O)[O-])cc1
Result block: 64

Query block: Determine its reported melting point: O=Cc1ccc(F)c(Br)c1
Result block: 31

Query block: Determine its reported melting point: CS(=O)c1cccc(CC(=O)O)c1 (configuration not stated)
Result block: 111

Query block: Determine its reported melting point: O=C(N[C@@H](Cc1ccc(F)cc1)C(=O)O)OCC1c2ccccc2-c2ccccc21
Result block: 185

Query block: Determine its reported melting point: CCOC(=O)CC(=O)C(C)C
Result block: -9

Query block: Determine its reported melting point: N#CCCCCCC#N
Result block: -31.4
